# Method notes: self-splicing fitness, log relative to wild type (ln ratio); higher = more splicing; Tetrahymena group I intron in knt gene, E. coli kanamycin selection, DiMSum; sequences stand for … in CUCUCU…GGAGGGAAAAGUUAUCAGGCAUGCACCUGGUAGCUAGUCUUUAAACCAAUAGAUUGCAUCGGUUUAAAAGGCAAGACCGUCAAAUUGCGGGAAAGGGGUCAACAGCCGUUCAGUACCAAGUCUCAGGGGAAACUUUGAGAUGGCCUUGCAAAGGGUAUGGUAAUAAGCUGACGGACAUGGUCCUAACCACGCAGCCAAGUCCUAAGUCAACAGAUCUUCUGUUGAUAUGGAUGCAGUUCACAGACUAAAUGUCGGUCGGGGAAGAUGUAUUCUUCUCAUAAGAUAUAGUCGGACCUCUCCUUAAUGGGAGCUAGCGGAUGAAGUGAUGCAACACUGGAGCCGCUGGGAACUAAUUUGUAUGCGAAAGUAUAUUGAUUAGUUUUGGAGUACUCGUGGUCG;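 note: selection with 25 µg/mL kanamycin versus none on LB agar overnight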
# Measurement conditions: 37 °C
Give met when the value for self-splicing fitness (ln) is at least -1. Give not met when it is less.

{"columns": ["Primary sequence", "Label value"],
 "data": [
  ["UUAGAGCAAUAUUACGCCCG", "met"],
  ["GGUUAGCAAUAUUACGUAGG", "not met"],
  ["CCUGAGCAAUAUUACGGUGG", "not met"]
]}

Query: Could you please find out whether `CAUUAGCAAUAUUACGCUCG` has self-splicing fitness (ln) that meets -1 or exceeds it?
Response: met

Query: Could you please find out whether `GUGCAGCAAUAUUACGUAGG` has self-splicing fitness (ln) that meets -1 or exceeds it?
Response: not met

Query: Could you please find out whether `CCCAAGCAAUAUUACGAUUA` has self-splicing fitness (ln) that meets -1 or exceeds it?
Response: not met

Query: Could you please find out whether `GAGGAGCAAUAUUACGAUAA` has self-splicing fitness (ln) that meets -1 or exceeds it?
Response: not met

Query: Could you please find out whether `AAUGAGCAAUAUUACGGAAU` has self-splicing fitness (ln) that meets -1 or exceeds it?
Response: not met

Query: Could you please find out whether `CACGAGCAAUAUUACGCUUU` has self-splicing fitness (ln) that meets -1 or exceeds it?
Response: not met

Query: Could you please find out whether `GACCAGCAAUAUUACGUUCA` has self-splicing fitness (ln) that meets -1 or exceeds it?
Response: met

Query: Could you please find out whether `CUGCAGCAAUAUUACGGGUG` has self-splicing fitness (ln) that meets -1 or exceeds it?
Response: met

Query: Could you please find out whether `AGAAAGCAAUAUUACGACGC` has self-splicing fitness (ln) that meets -1 or exceeds it?
Response: met

Query: Could you please find out whether `AUGCAGCAAUAUUACGCCAC` has self-splicing fitness (ln) that meets -1 or exceeds it?
Response: not met

Query: Could you please find out whether `AGCCAGCAAUAUUACGGAGA` has self-splicing fitness (ln) that meets -1 or exceeds it?
Response: not met

Query: Could you please find out whether `UGUCAGCAAUAUUACGUCCG` has self-splicing fitness (ln) that meets -1 or exceeds it?
Response: met

Query: Could you please find out whether `UUGAAGCAAUAUUACGAGAU` has self-splicing fitness (ln) that meets -1 or exceeds it?
Response: not met

Query: Could you please find out whether `GGAAAGCAAUAUUACGUCUA` has self-splicing fitness (ln) that meets -1 or exceeds it?
Response: met

Query: Could you please find out whether `UCGGAGCAAUAUUACGAUUC` has self-splicing fitness (ln) that meets -1 or exceeds it?
Response: met

Query: Could you please find out whether `UACGAGCAAUAUUACGUUGG` has self-splicing fitness (ln) that meets -1 or exceeds it?
Response: not met

Query: Could you please find out whether `GAACAGCAAUAUUACGCAUG` has self-splicing fitness (ln) that meets -1 or exceeds it?
Response: met

* * *

# Method notes: self-splicing fitness, log relative to wild type (ln ratio); higher = more splicing; Tetrahymena group I intron in knt gene, E. coli kanamycin selection, DiMSum; sequences stand for … in CUCUCU…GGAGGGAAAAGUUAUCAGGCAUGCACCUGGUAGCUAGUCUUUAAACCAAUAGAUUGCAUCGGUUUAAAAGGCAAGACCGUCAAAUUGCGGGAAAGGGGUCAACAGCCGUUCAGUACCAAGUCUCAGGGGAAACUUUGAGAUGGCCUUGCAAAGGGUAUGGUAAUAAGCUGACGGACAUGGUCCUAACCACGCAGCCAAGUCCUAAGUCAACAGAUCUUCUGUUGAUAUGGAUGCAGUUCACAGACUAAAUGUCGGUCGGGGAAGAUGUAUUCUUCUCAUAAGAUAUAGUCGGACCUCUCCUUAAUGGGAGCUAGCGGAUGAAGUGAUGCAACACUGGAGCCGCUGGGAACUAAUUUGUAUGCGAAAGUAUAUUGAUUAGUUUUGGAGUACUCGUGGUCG
# Measurement conditions: 37 °C
Note that class boundaries on self-splicing fitness (ln) are group 1 = under -2, group 2 = from -2 up to -0.8, group 3 = -0.8 and over

Solved cases (10 shown):
{"columns": ["Primary sequence", "Label value"],
 "data": [
  ["CUGGAGCAAUAUUACGAUGU", "group 1"],
  ["UUUCAGCAAUAUUACGGUCG", "group 3"],
  ["UCUUAGCAAUAUUACGACUU", "group 1"],
  ["ACGUAGCAAUAUUACGUCUC", "group 1"],
  ["GCAGAGCAAUAUUACGUAUU", "group 2"],
  ["CAGAAGCAAUAUUACGAUUA", "group 2"],
  ["GUAAAGCAAUAUUACGCUAU", "group 3"],
  ["ACUUAGCAAUAUUACGCCAG", "group 2"],
  ["ACCUAGCAAUAUUACGUACA", "group 2"],
  ["GAAGAGCAAUAUUACGAUGC", "group 2"]
]}

Query: State the class of the sequence shown: `UCUCAGCAAUAUUACGACCU`
Response: group 2

Query: State the class of the sequence shown: `AUAUAGCAAUAUUACGUGGU`
Response: group 2

Query: State the class of the sequence shown: `AGUUAGCAAUAUUACGGAGG`
Response: group 1

Query: State the class of the sequence shown: `ACACAGCAAUAUUACGGUUA`
Response: group 3

Query: State the class of the sequence shown: `ACUUAGCAAUAUUACGAAGU`
Response: group 2

Query: State the class of the sequence shown: `UCCCAGCAAUAUUACGAGUU`
Response: group 1

Query: State the class of the sequence shown: `GCUGAGCAAUAUUACGUCCC`
Response: group 3

Query: State the class of the sequence shown: `AACAAGCAAUAUUACGAUUA`
Response: group 3

Query: State the class of the sequence shown: `GAAAAGCAAUAUUACGUCGA`
Response: group 3

Query: State the class of the sequence shown: `UGGUAGCAAUAUUACGGGUC`
Response: group 1

Query: State the class of the sequence shown: `AUGGAGCAAUAUUACGCAGG`
Response: group 1

Query: State the class of the sequence shown: `AUGCAGCAAUAUUACGGCCC`
Response: group 3

Query: State the class of the sequence shown: `ACCGAGCAAUAUUACGGGAC`
Response: group 1

Query: State the class of the sequence shown: `GCCCAGCAAUAUUACGCUCA`
Response: group 3

Query: State the class of the sequence shown: `UACAAGCAAUAUUACGUAAA`
Response: group 2

Query: State the class of the sequence shown: `GACGAGCAAUAUUACGAUAU`
Response: group 1

* * *

# Method notes: self-splicing fitness, log relative to wild type (ln ratio); higher = more splicing; Tetrahymena group I intron in knt gene, E. coli kanamycin selection, DiMSum; sequences stand for … in CUCUCU…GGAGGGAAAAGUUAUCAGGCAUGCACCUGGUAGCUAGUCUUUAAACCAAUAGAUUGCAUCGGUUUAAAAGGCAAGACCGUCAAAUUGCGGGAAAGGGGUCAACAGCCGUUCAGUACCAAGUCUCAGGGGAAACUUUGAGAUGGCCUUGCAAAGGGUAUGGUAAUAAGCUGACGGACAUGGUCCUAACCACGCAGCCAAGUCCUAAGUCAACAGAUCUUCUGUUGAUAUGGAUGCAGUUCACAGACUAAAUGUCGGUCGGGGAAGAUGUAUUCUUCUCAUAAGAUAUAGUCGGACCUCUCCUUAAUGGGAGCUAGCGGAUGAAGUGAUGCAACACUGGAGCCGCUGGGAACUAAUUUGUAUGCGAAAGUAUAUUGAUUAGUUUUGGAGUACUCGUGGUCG
# Measurement conditions: 37 °C
In this section we review reported self-splicing fitness (ln) values for a set of sequences.
I'd appreciate a reply containing only the number, no unit.

{"columns": ["Primary sequence", "self-splicing fitness (ln)"],
 "data": [
  ["UACUAGCAAUAUUACGACGA", -0.172]
]}

Documented self-splicing fitness (ln) of `CGGCAGCAAUAUUACGGAAU` : -1.42

The measurements presented in this section are drawn from the supplement of paper PMC7877785.
